Molecular target: P-gp (ABCB1) (Homo sapiens, UniProt P08183)
Sequence (P08183 whole entry): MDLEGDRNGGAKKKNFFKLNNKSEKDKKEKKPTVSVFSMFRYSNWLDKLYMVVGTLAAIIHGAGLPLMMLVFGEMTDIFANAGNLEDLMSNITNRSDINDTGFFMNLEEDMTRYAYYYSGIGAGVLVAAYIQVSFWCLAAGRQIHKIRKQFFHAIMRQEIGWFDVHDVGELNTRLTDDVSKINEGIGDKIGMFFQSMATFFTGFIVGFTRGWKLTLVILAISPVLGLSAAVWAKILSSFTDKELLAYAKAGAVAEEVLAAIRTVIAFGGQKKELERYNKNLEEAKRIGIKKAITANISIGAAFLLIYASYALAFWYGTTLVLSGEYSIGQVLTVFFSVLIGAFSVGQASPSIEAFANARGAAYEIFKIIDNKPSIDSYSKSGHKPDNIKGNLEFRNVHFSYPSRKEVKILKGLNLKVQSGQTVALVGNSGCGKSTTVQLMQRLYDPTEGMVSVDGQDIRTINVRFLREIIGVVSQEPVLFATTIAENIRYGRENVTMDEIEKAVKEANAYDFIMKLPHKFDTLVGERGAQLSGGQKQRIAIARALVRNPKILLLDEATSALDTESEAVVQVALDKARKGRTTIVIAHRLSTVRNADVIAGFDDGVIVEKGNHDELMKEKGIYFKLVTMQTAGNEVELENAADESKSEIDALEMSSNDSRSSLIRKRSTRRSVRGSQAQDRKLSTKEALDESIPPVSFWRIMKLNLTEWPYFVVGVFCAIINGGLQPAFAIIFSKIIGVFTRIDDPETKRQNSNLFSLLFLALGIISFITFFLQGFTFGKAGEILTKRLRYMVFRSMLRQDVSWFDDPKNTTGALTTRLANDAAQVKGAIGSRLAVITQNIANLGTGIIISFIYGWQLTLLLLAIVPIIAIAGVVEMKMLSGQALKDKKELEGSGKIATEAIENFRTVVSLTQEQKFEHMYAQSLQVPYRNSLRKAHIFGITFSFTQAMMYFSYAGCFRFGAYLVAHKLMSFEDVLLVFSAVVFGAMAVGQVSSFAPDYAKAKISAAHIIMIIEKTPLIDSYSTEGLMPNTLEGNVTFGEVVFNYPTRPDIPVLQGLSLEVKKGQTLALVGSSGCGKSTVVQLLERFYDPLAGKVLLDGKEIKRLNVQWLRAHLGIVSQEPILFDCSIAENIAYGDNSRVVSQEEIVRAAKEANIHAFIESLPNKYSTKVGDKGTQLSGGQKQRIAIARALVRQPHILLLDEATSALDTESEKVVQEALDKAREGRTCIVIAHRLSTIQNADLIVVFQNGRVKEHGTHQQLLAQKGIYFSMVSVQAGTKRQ
Assay: Inhibition of human Pgp-mediated DNR transport in NIH3T3 cells by microplate assay
Type: cell-based, Mus musculus
Settings: mouse, NIH3T3 cells expressing human P-gp, probe DNR; read-out: Imax
Emax vs 90%: less than gives true; not less than gives false.

The examples below pair each entry with its known result.
QUERY_SMILES	ASSIGNED_CLASS
CC(=O)O[C@H]1[C@@H](OC(=O)c2ccccc2)C[C@@](C)(O)[C@]23OC(C)(C)[C@H](C[C@H](OC(=O)c4ccco4)[C@]12C)[C@H]3OC(=O)c1cccc2ccccc12	true
CC(=O)OC[C@]12[C@@H](OC(=O)c3ccco3)C[C@@H]3[C@@H](OC(C)=O)[C@]1(OC3(C)C)[C@](C)(O)C[C@H](OC(=O)c1ccco1)[C@@H]2OC(=O)c1ccco1	false

[ask] Lab note: Emax threshold 90%. Does this compound come in strictly under it? "CC(=O)OC[C@@]12[C@@H](OC(=O)c3ccccc3)CC[C@@](C)(O)[C@]13OC(C)(C)[C@H]([C@@H](OC(=O)c1ccccc1)[C@H]2OC(=O)c1ccccc1)[C@H]3OC(C)=O"
[reply] false

[ask] Dear reviewer, please state whether "CC(=O)OC[C@]12[C@H](OC(C)=O)C(=O)[C@@H]3[C@@H](OC(C)=O)[C@]1(OC3(C)C)[C@](C)(O)[C@@H](OC(C)=O)[C@H](OC(C)=O)[C@@H]2OC(=O)c1ccccc1" has Emax strictly beneath 90%.
[reply] true

[ask] Please let me know if "CC(=O)O[C@H]1[C@H](OC(=O)/C=C/c2ccccc2)[C@@]2(C)[C@@H](OC(=O)c3ccccc3)C[C@@H]3C[C@]2(OC3(C)C)[C@](C)(O)[C@H]1OC(=O)c1cccnc1" shows Emax below 90%.
[reply] false

[ask] Please let me know if "CC(=O)O[C@H]1C[C@@](C)(O)[C@]23OC(C)(C)[C@H](C[C@H](OC(=O)c4ccco4)[C@]2(C)[C@H]1OC(=O)c1ccccc1)[C@H]3OC(=O)c1ccco1" shows Emax below 90%.
[reply] true

[ask] Here's an entry: "CC(=O)O[C@H]1C[C@@](C)(O)[C@]23OC(C)(C)[C@H](C[C@H](OC(=O)c4ccco4)[C@]2(C)[C@H]1OC(C)=O)[C@H]3OC(=O)C(F)(F)F" . Is its Emax below 90%?
[reply] true

[ask] hey, is Emax for "CCCO[C@H]1C[C@@](C)(O)[C@]23OC(C)(C)[C@H](C[C@H](OC(=O)c4ccco4)[C@]2(C)[C@H]1OC(C)=O)[C@H]3OC(=O)c1ccco1" lower than 90% or not?
[reply] false

[ask] Emax strictly < 90% for this compound? "CC(=O)O[C@@H]1[C@H]2C[C@H](OC(=O)c3ccco3)[C@]3(C)[C@@H](OC(C)=O)[C@@H](OC(=O)c4ccccc4)C[C@@](C)(O)[C@@]13OC2(C)C"
[reply] false

====

Molecular target: UniProtKB P08183
Assay: Inhibition of human Pgp-mediated DNR transport in NIH3T3 cells by microplate assay
Type: cell-based, Mus musculus
Details: read-out: Ki
Label Criterion met when Ki is strictly below 2000 nM; at or above that, label Criterion not met.

These solved cases illustrate the format of a correct answer.
QUERY_SMILES	ASSIGNED_CLASS
CC(=O)O[C@H]1[C@@H](OC(=O)c2ccco2)C[C@@](C)(O)[C@]23OC(C)(C)[C@H](C[C@H](OC(=O)c4ccco4)[C@]12C)[C@H]3OC(=O)c1ccco1	Criterion not met
CC(=O)OC[C@]12[C@@H](OC(=O)c3ccccc3)C[C@@H]3[C@@H](OC(=O)c4ccccc4)[C@]1(OC3(C)C)[C@](C)(O)C[C@H](OC(=O)c1cccnc1)[C@@H]2OC(C)=O	Criterion met
CC(=O)OC[C@]12[C@@H](OC(=O)c3ccccc3)C[C@@H]3[C@@H](OC(=O)c4ccccc4)[C@]1(OC3(C)C)[C@](C)(O)C[C@H](OC(C)=O)[C@@H]2OC(C)=O	Criterion met
CC(=O)O[C@@H]1[C@H]2[C@@H](OC(=O)c3ccccc3)[C@@H](OC(=O)c3ccccc3)[C@]3(CO)[C@@H](OC(=O)c4ccccc4)[C@@H](OC(=O)c4ccccc4)C[C@@H](C)[C@@]13OC2(C)C	Criterion met

Consider the record given below.
[ask] Please indicate whether the reported Ki of "CC(=O)O[C@H]1[C@@H](OC(=O)c2ccccc2)C[C@@](C)(O)[C@]23OC(C)(C)[C@H](C[C@H](OC(=O)c4ccco4)[C@]12C)[C@H]3OC(=O)C(F)(F)F" is strictly below 2000 nM.
[reply] Criterion met

====

Quick reference: Ki of the listed items.
Target: ATP-dependent translocase ABCB1 (Homo sapiens)
Experiment: Inhibition of human Pgp-mediated DNR transport in NIH3T3 cells by microplate assay
Assay type: cell-based, Mus musculus
Settings: read-out: Ki
Unit µM implied. Number only.

// solved cases for Ki follow
QUERY_SMILES	NUMERIC_READOUT
CC(=O)O[C@@H]1C[C@@](C)(O)[C@@]23C[C@@H](C[C@H](OC(=O)/C=C/c4ccccc4)[C@]2(C)[C@H]1OC(=O)c1ccccc1)C(C)(C)O3	7.61
CC(=O)O[C@H]1C[C@@](C)(O)[C@]23OC(C)(C)[C@H](C[C@H](OC(=O)c4ccco4)[C@]2(C)[C@H]1O)[C@H]3OC(=O)c1ccco1	100
CC(=O)OC[C@]12[C@H](OC(=O)c3ccccc3)[C@H](OC(=O)c3ccccc3)[C@@H]3[C@@H](OC(C)=O)[C@]1(OC3(C)C)[C@H](C)C[C@H](OC(=O)c1ccccc1)[C@@H]2OC(C)=O	33.8

[ask] Provide value of Ki for this record tested with ATP-dependent translocase ABCB1 (Homo sapiens): "CC(=O)OC[C@]12[C@@H](OC(=O)c3ccccc3)C[C@@H]3[C@@H](OC(C)=O)[C@]1(OC3(C)C)[C@H](C)C[C@H](OC(C)=O)[C@@H]2OC(C)=O"
[reply] 2.36

[ask] Lab request: please report Ki under test system ATP-dependent translocase ABCB1 (Homo sapiens) for "CC(=O)O[C@H]1[C@H](OC(=O)/C=C/c2ccccc2)[C@@]2(C)[C@@H](OC(=O)c3ccccc3)C[C@@H]3C[C@]2(OC3(C)C)[C@](C)(O)[C@H]1OC(=O)c1cccnc1"
[reply] 2.07

[ask] Record lookup: for ATP-dependent translocase ABCB1 (Homo sapiens), what Ki belongs to "CC(=O)OC[C@]12[C@H](OC(=O)c3ccccc3)C(=O)[C@@H]3[C@@H](OC(C)=O)[C@]1(OC3(C)C)[C@H](C)C[C@H](OC(C)=O)[C@@H]2OC(C)=O" ?
[reply] 2.54

[ask] Test system ATP-dependent translocase ABCB1 (Homo sapiens); read-out Ki; what value for "CC(=O)O[C@H]1[C@@H]2C[C@@]3(OC2(C)C)[C@](C)([C@H]1OC(=O)c1ccccc1)[C@@H](OC(=O)c1cccnc1)[C@H](OC(C)=O)[C@H](OC(=O)c1ccccc1)[C@@]3(C)O" ?
[reply] 1.36

[ask] What Ki appears in the records for this molecule with ATP-dependent translocase ABCB1 (Homo sapiens)? "CCCCCO[C@@H]1[C@@H]2[C@@H](OC(C)=O)[C@@]3(OC2(C)C)[C@@](COC(C)=O)([C@@H](OC(C)=O)CC[C@@]3(C)O)[C@@H]1OC(=O)c1ccccc1"
[reply] 1.83

[ask] Checklist item: Ki tested on ATP-dependent translocase ABCB1 (Homo sapiens), entry "CC(=O)OC[C@]12[C@H](OC(C)=O)C(=O)[C@@H]3[C@@H](O)[C@]1(OC3(C)C)[C@](C)(O)C[C@H](OC(C)=O)[C@@H]2OC(C)=O" , value?
[reply] 7.65

[ask] State its Ki on ATP-dependent translocase ABCB1 (Homo sapiens): "CC(=O)OC[C@]12[C@H](OC(=O)c3ccccc3)C(=O)[C@@H]3[C@@H](O)[C@]1(OC3(C)C)[C@](C)(O)C[C@H](OC(C)=O)[C@@H]2OC(=O)c1ccccc1"
[reply] 3.97

[ask] Request - read-out Ki | tested on ATP-dependent translocase ABCB1 (Homo sapiens) | molecule "CCCCCO[C@H]1C[C@@](C)(O)[C@]23OC(C)(C)[C@H](C[C@H](OC(=O)c4ccco4)[C@]2(C)[C@H]1OC(C)=O)[C@H]3OC(=O)c1ccco1"
[reply] 0.57

====

Target: ATP-dependent translocase ABCB1 (Homo sapiens, UniProt P08183)
Sequence (P08183 whole entry): as above
Test: Inhibition of human Pgp-mediated DNR transport in NIH3T3 cells by microplate assay
Format: cell-based, Mus musculus
Conditions: read-out: Ki
PROPERTY_MEASURED: pKi
Convention used: pKi is expressed as -log10 of the molar concentration.

Solved cases (2 shown):
                               query_smiles  property_measured  numeric_readout
0  CC(=O)O[C@@H]1C[C@@](C)(O)[C@@]23C[C@@H](C[C@H](OC(=O)c4ccccc4)[C@]2(C)[C@H]1OC(=O)c1ccccc1)C(C)(C)O3                pKi             5.12
1  CC(=O)O[C@H]1[C@@H](OC(=O)c2ccccc2)C[C@@](C)(O)[C@]23OC(C)(C)[C@H](C[C@H](OC(=O)c4ccco4)[C@]12C)[C@H]3OC(=O)c1ccco1                pKi             6.15

Proceed to the following item.
[ask] Value wanted: pKi (ATP-dependent translocase ABCB1 (Homo sapiens, UniProt P08183)) of entry "CC(=O)O[C@H]1C[C@@](C)(O)[C@]23OC(C)(C)[C@H](C[C@H](OC(=O)c4ccco4)[C@]2(C)[C@H]1OC(C)=O)[C@H]3OC(C)=O"
[reply] 4.00
